Test system: Plasmodium berghei
protocol summary: Luciferase/luciferin-expressing antifolate-resistant parasites were used to infect a culture of HepG2 cells that were pre-incubated with compounds. Infected hepatocytes emit light due to the luciferase reaction. Assay results are presented as the percent inhibition of light emission compared to control. […]
Format: functional
condition: sporozoite, PBLUC_HILL_SLOPE 15.7, PBLUC_R_SQUARED 0.255, read-out: LUCIFERASE INFECTION ASSAY - IC50
reported metric: IC50

Exam item: What does the record list as IC50 for CN(C)CCNC(=O)c1cccc(-c2cc(-c3ccc(-c4ccccc4)cc3F)cnc2N)c1 ?
Marked response: > 7.26 µM

----------
System: Plasmodium berghei
protocol summary: Luciferase/luciferin-expressing antifolate-resistant parasites were used to infect a culture of HepG2 cells that were pre-incubated with compounds. Infected hepatocytes emit light due to the luciferase reaction. Assay results are presented as the percent inhibition of light emission compared to control. […]
Type: functional
condition: sporozoite, PBLUC_HILL_SLOPE 9.07, PBLUC_R_SQUARED 0.477, read-out: LUCIFERASE INFECTION ASSAY - IC50
reported metric: pIC50
Notebook: values listed as pIC50 are -log10 of the concentration (mol/L).

Exam item: Lookup: pIC50 / Plasmodium berghei / COc1cncc(-c2cncc(Nc3ccc(C(C)C)cc3)c2)c1
Marked response: 5.39

----------
Tested on: Plasmodium berghei
protocol summary: Luciferase/luciferin-expressing antifolate-resistant parasites were used to infect a culture of HepG2 cells that were pre-incubated with compounds. Infected hepatocytes emit light due to the luciferase reaction. Assay results are presented as the percent inhibition of light emission compared to control. […]
Format: functional
condition: sporozoite, PBLUC_HILL_SLOPE 4.19, PBLUC_R_SQUARED 0.0967, read-out: LUCIFERASE INFECTION ASSAY - IC50
reported metric: pIC50
Notebook: values listed as pIC50 are -log10 of the concentration (mol/L).

Exam item: What does the record list as pIC50 for COc1ccccc1/C=C(/C(=O)OCc1cc(=O)n2cc(C)ccc2n1)c1ccccc1 ?
Marked response: 5.18

----------
System: Plasmodium berghei
protocol summary: Luciferase/luciferin-expressing antifolate-resistant parasites were used to infect a culture of HepG2 cells that were pre-incubated with compounds. Infected hepatocytes emit light due to the luciferase reaction. Assay results are presented as the percent inhibition of light emission compared to control. […]
Type: functional
condition: sporozoite, HEPG2TOX_HILL_SLOPE 1.36, HEPG2TOX_R_SQUARED 0.789, PBLUC_HILL_SLOPE 10.4, PBLUC_R_SQUARED 0.861, read-out: LUCIFERASE INFECTION ASSAY - IC50
reported metric: IC50
State the result as a value with its unit after it.

Exam item: What does the record list as IC50 for Cc1noc(C)c1CCC(=O)Nc1nc2cc(C(F)(F)F)ccc2n1Cc1ccco1 ?
Marked response: 2890 nM

----------
Test system: Plasmodium berghei
protocol summary: Luciferase/luciferin-expressing antifolate-resistant parasites were used to infect a culture of HepG2 cells that were pre-incubated with compounds. Infected hepatocytes emit light due to the luciferase reaction. Assay results are presented as the percent inhibition of light emission compared to control. […]
Assay type: functional
condition: sporozoite, PBLUC_HILL_SLOPE 38, PBLUC_R_SQUARED 0.372, read-out: LUCIFERASE INFECTION ASSAY - IC50
reported metric: pIC50
Notebook: values listed as pIC50 are -log10 of the concentration (mol/L).

Exam item: What does the record list as pIC50 for CN1N=C2c3ccccc3CCCC2C1c1ccc(C(C)(C)C)cc1 (stereo unspecified) ?
Marked response: 5.48

----------
Tested on: Plasmodium berghei
protocol summary: Luciferase/luciferin-expressing antifolate-resistant parasites were used to infect a culture of HepG2 cells that were pre-incubated with compounds. Infected hepatocytes emit light due to the luciferase reaction. Assay results are presented as the percent inhibition of light emission compared to control. […]
Format: functional
condition: sporozoite, PBLUC_HILL_SLOPE 3.6, PBLUC_R_SQUARED 0.311, read-out: LUCIFERASE INFECTION ASSAY - IC50
reported metric: pIC50
Notebook: values listed as pIC50 are -log10 of the concentration (mol/L).

Exam item: Lookup: pIC50 / Plasmodium berghei / O=C(NC1CC1)c1ccc(-c2cnn3c(NCc4ccc(F)cc4)ccnc23)cc1
Marked response: 5.32

----------
Tested on: Plasmodium berghei
protocol summary: Luciferase/luciferin-expressing antifolate-resistant parasites were used to infect a culture of HepG2 cells that were pre-incubated with compounds. Infected hepatocytes emit light due to the luciferase reaction. Assay results are presented as the percent inhibition of light emission compared to control. […]
Type: functional
condition: sporozoite, HEPG2TOX_HILL_SLOPE 1.81, HEPG2TOX_R_SQUARED 0.745, PBLUC_HILL_SLOPE 12.8, PBLUC_R_SQUARED 0.53, read-out: LUCIFERASE INFECTION ASSAY - IC50
reported metric: IC50
State the result as a value with its unit after it.

Exam item: Lookup: IC50 / Plasmodium berghei / COc1cc(OC)cc(C(=O)Nc2nc3ccc(C)cn3c2C(=O)NC2CCCCC2)c1
Marked response: 872 nM

----------
Test system: Plasmodium berghei
protocol summary: Luciferase/luciferin-expressing antifolate-resistant parasites were used to infect a culture of HepG2 cells that were pre-incubated with compounds. Infected hepatocytes emit light due to the luciferase reaction. Assay results are presented as the percent inhibition of light emission compared to control. […]
Format: functional
condition: sporozoite, FFLUC_HILL_SLOPE 1.55, FFLUC_R_SQUARED 0.688, HEPG2TOX_HILL_SLOPE 12, HEPG2TOX_R_SQUARED 0.541, PBLUC_HILL_SLOPE 35.8, PBLUC_R_SQUARED 0.416, read-out: LUCIFERASE INFECTION ASSAY - IC50
reported metric: IC50
State the result as a value with its unit after it.

Exam item: What does the record list as IC50 for Cc1cc(O)cc2c1C(=O)/C(=C/c1ccccc1F)O2 ?
Marked response: 11.1 µM

----------
Tested on: Plasmodium berghei
protocol summary: Luciferase/luciferin-expressing antifolate-resistant parasites were used to infect a culture of HepG2 cells that were pre-incubated with compounds. Infected hepatocytes emit light due to the luciferase reaction. Assay results are presented as the percent inhibition of light emission compared to control. […]
Assay type: functional
condition: sporozoite, HEPG2TOX_HILL_SLOPE 7.21, HEPG2TOX_R_SQUARED 0.311, read-out: LUCIFERASE INFECTION ASSAY - IC50
pIC50: −log10 of the molar value.
reported metric: pIC50

Exam item: Lookup: pIC50 / Plasmodium berghei / Cc1[nH]nc2ccnc(-c3cccc(Cl)c3)c12
Marked response: < 5.00

----------
Tested on: Plasmodium berghei
protocol summary: Luciferase/luciferin-expressing antifolate-resistant parasites were used to infect a culture of HepG2 cells that were pre-incubated with compounds. Infected hepatocytes emit light due to the luciferase reaction. Assay results are presented as the percent inhibition of light emission compared to control. […]
Type: functional
condition: sporozoite, PBLUC_HILL_SLOPE 10.5, PBLUC_R_SQUARED 0.468, read-out: LUCIFERASE INFECTION ASSAY - IC50
reported metric: pIC50
Notebook: values listed as pIC50 are -log10 of the concentration (mol/L).

Exam item: What does the record list as pIC50 for CCCc1cc(=O)n2nc(C)c(-c3ccc(Cl)cc3)c2[nH]1 ?
Marked response: 5.39

----------
Test system: Plasmodium berghei
protocol summary: Luciferase/luciferin-expressing antifolate-resistant parasites were used to infect a culture of HepG2 cells that were pre-incubated with compounds. Infected hepatocytes emit light due to the luciferase reaction. Assay results are presented as the percent inhibition of light emission compared to control. […]
Format: functional
condition: sporozoite, HEPG2TOX_HILL_SLOPE 6.88, HEPG2TOX_R_SQUARED 0.357, read-out: LUCIFERASE INFECTION ASSAY - IC50
reported metric: IC50

Exam item: What does the record list as IC50 for CC1=C(C(=O)OC(C)C)C(c2ccccc2)n2nc(-c3cccs3)nc2N1 (stereo unspecified) ?
Marked response: > 10 µM

----------
Test system: Plasmodium berghei
protocol summary: Luciferase/luciferin-expressing antifolate-resistant parasites were used to infect a culture of HepG2 cells that were pre-incubated with compounds. Infected hepatocytes emit light due to the luciferase reaction. Assay results are presented as the percent inhibition of light emission compared to control. […]
Type: functional
condition: sporozoite, read-out: LUCIFERASE INFECTION ASSAY - IC90
reported metric: IC90

Exam item: What does the record list as IC90 for COc1ccc(Br)cc1/C=C/C(=O)c1ccc(OCC#N)cc1 ?
Marked response: > 10 µM

Exam item: Another compound to check: O=c1c2sccc2ncn1Cc1cc(-c2cccs2)on1
Marked response: > 10 µM

Exam item: Another compound to check: COC(=O)c1cc(C#N)c(S(C)(=O)=O)s1
Marked response: > 13.5 µM

Exam item: Another compound to check: Cc1ccc2cccc(Oc3ncnc4scc(-c5ccccc5)c34)c2n1
Marked response: > 10 µM

Exam item: Another compound to check: N#C/C(=N\Nc1ccc(OC(F)(F)F)cc1)S(=O)(=O)c1ccccn1
Marked response: > 8.91 µM

Exam item: Another compound to check: Cc1nn2c(nc(NCc3ccc(Cn4ccnc4)cc3)c3ccccc32)c1Cl
Marked response: > 10 µM

Exam item: Another compound to check: COc1ccccc1Oc1ccc(C(F)(F)F)cc1NC(=O)c1sc2ccccc2c1Cl
Marked response: > 6.91 µM

Exam item: Another compound to check: CC(N=C(S)Nc1ccc(OC(F)F)c(Cl)c1)C(C)(C)C (configuration not stated)
Marked response: > 10 µM

Exam item: Another compound to check: CS(=O)(=O)Nc1cccc(-c2cn3c(-c4cccc(CO)c4)cnc3cn2)c1
Marked response: > 8.37 µM

Exam item: Another compound to check: CC(=O)N(c1nc(/C=C/C(=O)c2cccc(Br)c2)cs1)c1ccc(F)cc1F
Marked response: > 10 µM

Exam item: Another compound to check: CCOC(=O)c1cc(C#N)c(N2CCN(S(=O)(=O)c3ccccc3Cl)CC2)nc1C(F)(F)F
Marked response: > 6.56 µM

Exam item: Another compound to check: CCOC(=O)c1sc(-c2ccccc2)cc1NC(=O)COC(=O)c1c2c(nc3ccccc13)CCC(C)C2 (configuration not stated)
Marked response: > 10 µM

Exam item: Another compound to check: N#CCCN(CCC#N)C(=O)CSc1nnc(CCC(N)=O)n1C1CC1
Marked response: > 10 µM

Exam item: Another compound to check: O=C(Nc1ccc(F)c(Cl)c1)c1ccc(F)c(Cl)c1
Marked response: > 10.9 µM

Exam item: Another compound to check: Cn1ccc2cc(-c3cn4c(-c5ccc6ncccc6c5)cnc4cn3)ccc21
Marked response: 3.52 µM

Exam item: Another compound to check: Clc1cccc(CNc2nnnn2-c2ccccc2)c1
Marked response: > 10 µM

Exam item: Another compound to check: CCCCc1[nH]nc2ccnc(-c3ccc(OC)c(OC)c3)c12
Marked response: 1.3 µM

Exam item: Another compound to check: CC(C)c1noc(CCC(=O)Nc2ccc(F)cc2F)n1
Marked response: > 10 µM

Exam item: Another compound to check: CCOc1cc(/C=C/C(=O)c2ccc(-c3ccccc3)cc2)ccc1OCC(=O)N(C)C
Marked response: > 10 µM

Exam item: Another compound to check: COc1cccc(-c2cnn3ccc(Nc4ccc(OC)nc4)nc23)c1
Marked response: 3.86 µM

Exam item: Another compound to check: N#CC(C#N)=C/C=C(/Sc1ccc(F)c(Cl)c1)c1ccc(Cl)cc1
Marked response: 7.65 µM

Exam item: Another compound to check: COc1cccc(-c2cn3c(-c4ccc(CO)cc4)cnc3cn2)c1F
Marked response: > 9.45 µM
